Measured IC50, listed per entry.
assayed_target: recombinant human Bcl-2-G101V protein (Homo sapiens (Human), UniProt P10415, G101V)
assay_method_text: Bcl-2-G101V TR-FRET Assay
Type: binding
test_conditions: Bcl-2 G101V mutant, TR-FRET; read-out: Biochemical assay (IC50, nM) Bcl-2 G101V
A number alone suffices; assume nM.

CC(C)c1ccccc1[C@@H]1CN(Cc2ccc(N3CCOCC3)cc2)CCN1C1CC2(C1)CN(c1ccc(C(=O)NS(=O)(=O)c3ccc(NC[C@H]4CC[C@](C)(O)CC4)c([N+](=O)[O-])c3)c(Oc3cnc4[nH]cc(F)c4c3)c1)C2 = 0.29
COc1ccc(CN2CCN(C3CC4(C3)CN(c3ccc(C(=O)NS(=O)(=O)c5ccc(NC[C@H]6CC[C@](C)(O)CC6)c([N+](=O)[O-])c5)c(Oc5cnc6[nH]cc(F)c6c5)c3)C4)[C@@H](c3ccccc3C(C)C)C2)cc1OC [Example 141b] = 2.3
CC(C)c1ccccc1C1CN(Cc2ccc3c(c2)CCCC3)CCN1C1CC2(CCN(c3ccc(C(=O)NS(=O)(=O)c4ccc(NC[C@H]5CC[C@](C)(O)CC5)c([N+](=O)[O-])c4)c(Oc4cnc5[nH]ccc5c4)c3)CC2)C1 (stereo partly shown) = 4.7

The reported IC50 of the compound CC(C)c1ccccc1C1CN(CC2CCOc3ccccc32)CCN1C1CC2(CCN(c3ccc(C(=O)NS(=O)(=O)c4ccc(NC[C@H]5CC[C@](C)(O)CC5)c([N+](=O)[O-])c4)c(Oc4cnc5[nH]ccc5c4)c3)CC2)C1 (stereo partly shown) was 2.2

----------
Measured IC50, listed per entry.
assayed_target: recombinant human Bcl-2-G101V protein (Homo sapiens (Human), UniProt P10415, G101V)
assay_method_text: Bcl-2-G101V TR-FRET Assay
Type: binding
test_conditions: Bcl-2 G101V mutant, TR-FRET; read-out: Biochemical assay (IC50, nM) Bcl-2 G101V
Answer format: number, then unit.

Examples from the recorded data:
COc1cc(CN2CCN(C3CC4(C3)CN(c3ccc(C(=O)NS(=O)(=O)c5ccc(NC[C@H]6CC[C@](C)(O)CC6)c([N+](=O)[O-])c5)c(Oc5cnc6[nH]cc(F)c6c5)c3)C4)[C@H](c3ccccc3C(C)C)C2)ccc1C [Example 274] = 0.85 nM
COc1cc(CN2CCN(C3CC4(CCN(c5ccc(C(=O)NS(=O)(=O)c6ccc(NC[C@H]7CC[C@](C)(O)CC7)c([N+](=O)[O-])c6)c(Oc6cnc7[nH]ccc7c6)c5)CC4)C3)[C@H](c3ccccc3C(C)C)C2)ccc1C [Example 260] = 0.75 nM
CC(C)c1ccccc1C1CN(Cc2cccc3c2OCCO3)CCN1C1CC2(CCN(c3ccc(C(=O)NS(=O)(=O)c4ccc(NC[C@H]5CC[C@](C)(O)CC5)c([N+](=O)[O-])c4)c(Oc4cnc5[nH]ccc5c4)c3)CC2)C1 (some centres unmarked) [Example 79] = 0.51 nM

The reported IC50 of the molecule COc1cc(CN2CCN(C3CC4(C3)CN(c3ccc(C(=O)NS(=O)(=O)c5ccc(NC[C@H]6CC[C@](C)(O)CC6)c([N+](=O)[O-])c5)c(Oc5cnc6[nH]cc(F)c6c5)c3)C4)[C@H](c3ccccc3C(C)C)C2)cc2c1OCC2(C)C [Example 295] was 0.56 nM

The reported IC50 of the molecule CC(C)c1ccccc1[C@@H]1CN(Cc2ccnc3c2OC(C)(C)CO3)CCN1C1CC2(C1)CN(c1ccc(C(=O)NS(=O)(=O)c3ccc(NC[C@H]4CC[C@](C)(O)CC4)c([N+](=O)[O-])c3)c(Oc3cnc4[nH]ccc4c3)c1)C2 [Example 314] was 0.13 nM

The reported IC50 of the molecule CC(C)c1ccccc1C1CN(Cc2ccc3c(c2)OCCO3)CCN1C1CC2(CCN(c3ccc(C(=O)NS(=O)(=O)c4ccc(NC[C@H]5CC[C@](C)(O)CC5)c([N+](=O)[O-])c4)c(Oc4cnc5[nH]ccc5c4)c3)CC2)C1 (some centres unmarked) [Example 78] was 0.98 nM

The reported IC50 of the molecule COc1ccc(CN2CCN(C3CC4(CCN(c5ccc(C(=O)NS(=O)(=O)c6ccc(NC[C@H]7CC[C@](C)(O)CC7)c([N+](=O)[O-])c6)c(Oc6cc7c(F)c[nH]c7nc6C)c5)CC4)C3)[C@H](c3ccccc3C(C)C)C2)cc1 [Example 125] was 0.71 nM

The reported IC50 of the molecule COc1ccc(CN2CCN(C3CC4(CCN(c5ccc(C(=O)NS(=O)(=O)c6ccc(NC[C@H]7CC[C@](C)(O)CC7)c([N+](=O)[O-])c6)c(Oc6cnc7[nH]cc(F)c7c6)c5)CC4)C3)[C@H](c3ccccc3C(C)C)C2)cc1 (single isomer, unassigned) [Example 95] was 0.38 nM

----------
assayed_target: Recombinant human Bcl-2 protein (Homo sapiens (Human), UniProt P10415)
assay_method_text: Bcl-2 TR-FRET Assay
Type: binding
test_conditions: Bcl-2 wild type, TR-FRET; read-out: Biochemical assay (IC50, nM) Bcl-2 WT
Procedure: Biological Example: Bcl-2 TR-FRET Assay Compounds disclosed herein were tested for blocking of Bcl-2 protein with its ligand in an assay based on Time-Resolved Fluorescence Resonance Energy Transfer (TR-FRET) methodology. […] The TR-FRET signals (337 nm-520 nm-490 nm) were read on BMG PHERAstar FSX instrument. The inhibition percentage of Bcl-2 interaction with its ligand in presence of increasing concentrations of compounds was calculated based on the TR-FRET signals. […]
property_label: IC50 (nM)
A number alone suffices; assume nM.

Examples from the recorded data:
CC(C)c1ccccc1C1CN(Cc2ccccc2)CCN1C1CC2(CCN(c3ccc(C(=O)NS(=O)(=O)c4ccc(NC[C@H]5CC[C@](C)(O)CC5)c([N+](=O)[O-])c4)c(Oc4cnc5[nH]ccc5c4)c3)CC2)C1 (some centres unmarked) = 0.45
[2H]C([2H])([2H])Oc1ccc(CN2CCN(C3CC4(CCN(c5ccc(C(=O)NS(=O)(=O)c6ccc(NC[C@H]7CC[C@](C)(O)CC7)c([N+](=O)[O-])c6)c(Oc6cnc7[nH]cc(Cl)c7c6)c5)CC4)C3)[C@H](c3ccccc3C(C)C)C2)cc1OC([2H])([2H])[2H] = 0.09

The reported IC50 of the compound CC(C)c1ccccc1[C@@H]1CN(Cc2ccc(F)cc2)CCN1C1CC2(CCN(c3ccc(C(=O)NS(=O)(=O)c4ccc(NC[C@H]5CC[C@](C)(O)CC5)c([N+](=O)[O-])c4)c(Oc4cnc5[nH]ccc5c4)c3)CC2)C1 (single isomer, unassigned) [Example 28a] was 0.098

The reported IC50 of the compound CC(C)c1ccccc1C1CN(Cc2ccc3c(c2)OCCO3)CCN1C1CC2(CCN(c3ccc(C(=O)NS(=O)(=O)c4ccc(NC[C@H]5CC[C@](C)(O)CC5)c([N+](=O)[O-])c4)c(Oc4cnc5[nH]ccc5c4)c3)CC2)C1 (some centres unmarked) was 0.21

The reported IC50 of the compound COc1cc(CN2CCN(C3CC4(C3)CN(c3ccc(C(=O)NS(=O)(=O)c5ccc(NC[C@H]6CC[C@](C)(O)CC6)c([N+](=O)[O-])c5)c(Oc5cnc6[nH]ccc6c5)c3)C4)[C@H](c3ccccc3C(C)C)C2)ccc1C(C)C was 1.1

The reported IC50 of the compound COc1ccc(CN2CCN(C3CC4(CCN(c5ccc(C(=O)NS(=O)(=O)c6ccc(NC[C@H]7CC[C@](C)(O)CC7)c([N+](=O)[O-])c6)c(Oc6cnc7[nH]ccc7c6)c5)CC4)C3)C(c3cc(F)ccc3C(C)C)C2)cc1 (some centres unmarked) was 0.28

The reported IC50 of the compound COc1cc(CN2CCN(C3CC4(CCN(c5ccc(C(=O)NS(=O)(=O)c6ccc(NC[C@H]7CC[C@](C)(O)CC7)c([N+](=O)[O-])c6)c(Oc6cnc7[nH]ccc7c6)c5)CC4)C3)[C@H](c3ccccc3C(C)C)C2)ccc1C(F)(F)F was 1.4

The reported IC50 of the compound CC(C)c1ccccc1[C@@H]1CN(Cc2cccc3c2OCC(C)(C)O3)CCN1C1CC2(C1)CN(c1ccc(C(=O)NS(=O)(=O)c3ccc(NC[C@H]4CC[C@](C)(O)CC4)c([N+](=O)[O-])c3)c(Oc3cnc4[nH]cc(F)c4c3)c1)C2 was 0.31

----------
System: RS4;11 (BCL-2 dependent acute lymphoblastic leukemia cell line)
assay_method_text: RS4;11 Cell Proliferation Assay
Type: cell-based
test_conditions: Homo sapiens, RS4-11, RS4;11 cells, read-out: Cellular proliferation assay (IC50, nM) RS4
Description: Biological Example: RS4;11 Cell Proliferation Assay The BCL-2 dependent acute lymphoblastic leukemia (ALL) cell line, RS4;11, was used to study the cellular potency of BCL-2 inhibitors. […] Cell viability was assessed after the treatment using CellTiter-GLO luminescent assay (Promega) according to the manufacturer's recommendations. […] Luminescent signals were measured using PHERAstar FS reader (BMG). Mean IC50 values were determined with GraphPad Prism software.
Measured IC50, listed per entry.
A number alone suffices; assume nM.

Examples from the recorded data:
COc1cccc(CN2CCN(C3CC4(CCN(c5ccc(C(=O)NS(=O)(=O)c6cc7c(c([N+](=O)[O-])c6)N[C@H](C[C@H]6CC[C@H](O)CC6)CO7)c(Oc6cnc7[nH]ccc7c6)c5)CC4)C3)C(c3ccccc3C(C)C)C2)c1 (some centres unmarked) [Example 45] = 0.41
COc1cc(CN2CCN(C3CC4(CCN(c5ccc(C(=O)NS(=O)(=O)c6ccc(NC[C@H]7CC[C@](C)(O)CC7)c([N+](=O)[O-])c6)c(Oc6cnc7[nH]ccc7c6)c5)CC4)C3)[C@H](c3ccccc3C(C)C)C2)ccc1C(F)(F)F [Example 277] = 0.22
CCc1cc(CN2CCN(C3CC4(CCN(c5ccc(C(=O)NS(=O)(=O)c6ccc(NC[C@H]7CC[C@](C)(O)CC7)c([N+](=O)[O-])c6)c(Oc6cnc7[nH]ccc7c6)c5)CC4)C3)C(c3ccccc3C(C)C)C2)ccc1OC (some centres unmarked) [Example 116] = 0.58
CC(C)c1ccccc1[C@@H]1CN(CC2C3CC4CC(C3)CC2C4)CCN1C1CC2(CCN(c3ccc(C(=O)NS(=O)(=O)c4ccc(NC[C@H]5CC[C@](C)(O)CC5)c([N+](=O)[O-])c4)c(Oc4cnc5[nH]ccc5c4)c3)CC2)C1 (some centres unmarked) [Example 259] = 0.55

The reported IC50 of the molecule COc1cc(CN2CCN(C3CC4(C3)CN(c3ccc(C(=O)NS(=O)(=O)c5ccc(NC[C@H]6CC[C@](C)(O)CC6)c([N+](=O)[O-])c5)c(Oc5cnc6[nH]cc(F)c6c5)c3)C4)[C@H](c3ccccc3C(C)C)C2)cc2c1OCCC2(C)C [Example 333] was 0.13

The reported IC50 of the molecule COc1cc(CN2CCN(C3CC4(C3)CN(c3ccc(C(=O)NS(=O)(=O)c5ccc(NC[C@H]6CC[C@](C)(O)CC6)c([N+](=O)[O-])c5)c(Oc5cnc6[nH]cc(F)c6c5)c3)C4)[C@H](c3ccccc3C(C)C)C2)cc(C)c1OC [Example 231] was 0.12

The reported IC50 of the molecule CC(C)c1ccccc1C1CN(Cc2ccoc2)CCN1C1CC2(CCN(c3ccc(C(=O)NS(=O)(=O)c4ccc(NC[C@H]5CC[C@](C)(O)CC5)c([N+](=O)[O-])c4)c(Oc4cnc5[nH]ccc5c4)c3)CC2)C1 (some centres unmarked) [Example 20] was 0.62

The reported IC50 of the molecule COc1ccc(CN2CCN(C3CC4(C3)CN(c3ccc(C(=O)NS(=O)(=O)c5ccc(NC[C@H]6CC[C@](C)(O)CC6)c([N+](=O)[O-])c5)c(Oc5cnc6[nH]cc(Cl)c6c5)c3)C4)[C@H](c3ccccc3C(C)C)C2)cc1OC [Example 164] was 0.23
